These data points were gathered from patent US10940139B2.

Consider the following molecules and their measured inhibition at 20 µM readings.
Molecular target: Rho-A (Homo sapiens (Human))
Sequence (P61586 whole entry): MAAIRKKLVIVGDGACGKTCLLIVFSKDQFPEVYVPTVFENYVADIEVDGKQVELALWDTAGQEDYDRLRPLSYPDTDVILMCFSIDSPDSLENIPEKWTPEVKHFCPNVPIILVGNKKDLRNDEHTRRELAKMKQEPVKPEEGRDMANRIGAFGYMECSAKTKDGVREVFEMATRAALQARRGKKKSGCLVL
Test: Rho inhibition assay (labeled GTP)
Assay type: binding
Conditions: read-out: Rho-A % Inh.

{"columns": ["molecule", "inhibition at 20 µM"],
 "data": [
  ["CC(C)(C)c1ccc(-c2csc3c(O)nc(-c4ccccn4)nc23)cc1 [drawing 3719]", "51 to 75%"],
  ["O=C(COCc1ccncc1)Nc1nc(-c2ccccn2)nc2sccc12 [drawing 3700]", "76 to 100%"],
  ["Cc1sc2c(O)nc(-c3nccn3C)nc2c1-c1ccccc1Cl [drawing 3920]", "51 to 75%"],
  ["Cc1sc2c(O)nc(-c3nccn3C)nc2c1-c1ccc(F)cc1F [drawing 3939]", "1 to 25%"],
  ["Oc1nc(-c2ccccn2)nc2c(-c3ccccc3OC3CCCCC3)csc12 [drawing 3738]", "51 to 75%"],
  ["O=C(c1csc2c(O)nc(-c3ccccn3)nc12)N1CCN(c2ccc(O)c(Cl)c2)CC1 [drawing 3692]", "76 to 100%"],
  ["COCCNc1nc(-c2nccn2C)nc2sc(-c3ccncc3)c(-c3ccccc3)c12 [drawing 3900]", "51 to 75%"],
  ["Cc1sc2c(O)nc(-c3ccccn3)nc2c1-c1ccccc1 [drawing 3777]", "51 to 75%"],
  ["Nc1nc(-c2ccccn2)nc2scc(C(=O)O)c12 [drawing 3778]", "51 to 75%"]
]}

###

Biological target: Rac-1 (Homo sapiens (Human))
Assay: Rac inhibition assay (labeled GTP)
Type: binding
Details: read-out: Rac-1 % Inh.
metric: inhibition at 20 µM

{"columns": ["compound", "assayedSystem", "metric", "result"],
 "data": [
  ["Cc1cc(OC(F)F)ccc1-c1csc2c(O)nc(-c3ccccn3)nc12 [drawing 3750]", "Rac-1 (Homo sapiens (Human))", "inhibition at 20 µM", "25 to 50%"],
  ["CCN(CC)CCOc1nc(-c2nccn2C)nc2sc(-c3ccccc3)c(-c3ccccc3)c12 [drawing 3891]", "Rac-1 (Homo sapiens (Human))", "inhibition at 20 µM", "1 to 25%"],
  ["Oc1nc(-c2ccccn2)nc2cc(-c3ccccc3Cl)sc12 [drawing 3874]", "Rac-1 (Homo sapiens (Human))", "inhibition at 20 µM", "51 to 75%"],
  ["Cn1ccnc1-c1nc(NCCCO)c2c(-c3ccccc3)c(-c3ccccc3)sc2n1 [drawing 3897]", "Rac-1 (Homo sapiens (Human))", "inhibition at 20 µM", "51 to 75%"],
  ["COC(=O)c1csc2nc(-c3ccccn3)nc(N)c12 [drawing 3767]", "Rac-1 (Homo sapiens (Human))", "inhibition at 20 µM", "51 to 75%"],
  ["COc1nc(-c2ccccn2)nc2c(C3CC3)csc12 [drawing 3808]", "Rac-1 (Homo sapiens (Human))", "inhibition at 20 µM", "0%"],
  ["Cc1ccc(-c2cc3nc(-c4ccccn4)nc(O)c3s2)cc1 [drawing 3873]", "Rac-1 (Homo sapiens (Human))", "inhibition at 20 µM", "1 to 25%"],
  ["Oc1nc(-c2ccccn2)nc2c(CC3CNC3)csc12 [drawing 3837]", "Rac-1 (Homo sapiens (Human))", "inhibition at 20 µM", "76 to 100%"],
  ["O=C(c1csc2c(O)nc(-c3ccccn3)nc12)N1CCNC(Cc2ccccc2)C1 (stereo not drawn) [drawing 3667]", "Rac-1 (Homo sapiens (Human))", "inhibition at 20 µM", "76 to 100%"]
]}

###

Molecular target: KRas G12D/Q61H double mutant (Homo sapiens (Human), UniProt P01116, G12D/Q61H)
Sequence (P01116-2 other isoform, or with tags, fused parts or gaps G12D/Q61H): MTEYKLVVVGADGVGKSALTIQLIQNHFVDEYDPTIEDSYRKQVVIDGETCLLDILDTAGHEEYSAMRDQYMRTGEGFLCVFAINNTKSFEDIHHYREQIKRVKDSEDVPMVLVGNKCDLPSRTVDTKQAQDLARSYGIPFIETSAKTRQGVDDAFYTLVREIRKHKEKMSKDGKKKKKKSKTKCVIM
Assay: Ras GTP binding domain inhibition assay (labeled GTP)
Conditions: at 20 μM; read-out: KRas G12D Q61H % Inh.
metric: inhibition at 20 µM

{"columns": ["molecule", "assayedSystem", "metric", "result"],
 "data": [
  ["Cc1ccccc1C1CN(C(=O)c2csc3c(O)nc(-c4ccccn4)nc23)CCN1 (centres unmarked) [drawing 3664]", "KRas G12D/Q61H double mutant (Homo sapiens (Human), UniProt P01116, G12D/Q61H)", "inhibition at 20 µM", "25 to 50%"],
  ["O=C(c1csc2c(O)nc(-c3ccccn3)nc12)N1CCOC(c2ccccc2)C1 (centres unmarked) [drawing 3655]", "KRas G12D/Q61H double mutant (Homo sapiens (Human), UniProt P01116, G12D/Q61H)", "inhibition at 20 µM", "1 to 25%"],
  ["COCCCCNC(=O)c1csc2nc(-c3ccccn3)nc(N3CCOCC3)c12 [drawing 3678]", "KRas G12D/Q61H double mutant (Homo sapiens (Human), UniProt P01116, G12D/Q61H)", "inhibition at 20 µM", "1 to 25%"],
  ["Oc1nc(-c2ccccn2)nc2c(-c3ccc(Cl)c(Cl)c3)csc12 [drawing 3781]", "KRas G12D/Q61H double mutant (Homo sapiens (Human), UniProt P01116, G12D/Q61H)", "inhibition at 20 µM", "25 to 50%"],
  ["Cc1ccccc1N1CCN(C(=O)c2csc3c(O)nc(-c4ccccn4)nc23)CC1 [drawing 3628]", "KRas G12D/Q61H double mutant (Homo sapiens (Human), UniProt P01116, G12D/Q61H)", "inhibition at 20 µM", "25 to 50%"],
  ["CC(C)(C(=O)Nc1nc(-c2ccccn2)nc2sccc12)c1ccc(C#N)cc1 [drawing 3641]", "KRas G12D/Q61H double mutant (Homo sapiens (Human), UniProt P01116, G12D/Q61H)", "inhibition at 20 µM", "0%"],
  ["Oc1nc(-c2ccccn2)nc2c(C3CCCC3)csc12 [drawing 3814]", "KRas G12D/Q61H double mutant (Homo sapiens (Human), UniProt P01116, G12D/Q61H)", "inhibition at 20 µM", "51 to 75%"],
  ["COC(=O)c1c(C)sc2nc(-c3ccccn3)nc(N)c12 [drawing 3804]", "KRas G12D/Q61H double mutant (Homo sapiens (Human), UniProt P01116, G12D/Q61H)", "inhibition at 20 µM", "51 to 75%"],
  ["Cc1sc2c(O)nc(-c3ccccn3)nc2c1Br [drawing 3840]", "KRas G12D/Q61H double mutant (Homo sapiens (Human), UniProt P01116, G12D/Q61H)", "inhibition at 20 µM", "25 to 50%"],
  ["O=C(c1cc2nc(-c3ccccn3)nc(O)c2s1)N1CCOC(c2ccccc2)C1 (centres unmarked) [drawing 3714]", "KRas G12D/Q61H double mutant (Homo sapiens (Human), UniProt P01116, G12D/Q61H)", "inhibition at 20 µM", "51 to 75%"],
  ["O=C(c1csc2c(O)nc(-c3ccccn3)nc12)N1CCNC(c2ccccc2Cl)C1 (centres unmarked) [drawing 3695]", "KRas G12D/Q61H double mutant (Homo sapiens (Human), UniProt P01116, G12D/Q61H)", "inhibition at 20 µM", "25 to 50%"]
]}

###

Consider the following compounds and their measured inhibition at 20 µM readings.
Molecular target: KRas G12D mutant protein (Homo sapiens (Human), UniProt P01116, G12D)
Sequence (P01116-2 other isoform, or with tags, fused parts or gaps G12D): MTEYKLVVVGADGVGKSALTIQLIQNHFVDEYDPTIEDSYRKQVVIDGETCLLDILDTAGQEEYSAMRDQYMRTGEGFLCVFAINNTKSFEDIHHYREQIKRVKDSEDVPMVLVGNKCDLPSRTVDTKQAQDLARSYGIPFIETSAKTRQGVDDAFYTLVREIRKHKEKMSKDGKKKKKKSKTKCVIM
Assay: Ras GTP binding domain inhibition assay (labeled GTP)
Settings: at 20 μM; read-out: KRas G12D % Inh.
metric: inhibition at 20 µM

{"columns": ["compound", "assayedSystem", "result"],
 "data": [
  ["Cc1sc2c(O)nc(-c3ccccn3)nc2c1C(=O)N1CCN(c2ccccc2)CC1C (centres unmarked) [drawing 3828]", "KRas G12D mutant protein (Homo sapiens (Human), UniProt P01116, G12D)", "51 to 75%"],
  ["Oc1nc(-c2ccccn2)nc2c(C3CCC3)csc12 [drawing 3797]", "KRas G12D mutant protein (Homo sapiens (Human), UniProt P01116, G12D)", "51 to 75%"],
  ["Oc1nc(-c2ccccn2)nc2c(-c3cc(Cl)cc(Cl)c3)csc12 [drawing 3720]", "KRas G12D mutant protein (Homo sapiens (Human), UniProt P01116, G12D)", "25 to 50%"],
  ["CC(C)Oc1ccc(-c2csc3c(O)nc(-c4nccn4C)nc23)cc1F [drawing 3927]", "KRas G12D mutant protein (Homo sapiens (Human), UniProt P01116, G12D)", "25 to 50%"],
  ["Cn1nnc2ccc(-c3csc4c(O)nc(-c5ccccn5)nc34)cc21 [drawing 3733]", "KRas G12D mutant protein (Homo sapiens (Human), UniProt P01116, G12D)", "51 to 75%"]
]}

###

Target: KRas G12D/Q61H double mutant (Homo sapiens (Human), UniProt P01116, G12D/Q61H)
Experiment: Ras GTP binding domain inhibition assay (labeled GTP)
Conditions: 20 μM compound; read-out: % Inhibition at 20 μM KRas G12D Q61H
Consider the following molecules and their measured inhibition at 20 µM readings.

{"columns": ["molecule", "inhibition at 20 µM"],
 "data": [
  ["COCc1nc(C)c(C(=O)Nc2nnc(-c3ccccn3)[nH]2)s1", "25 to 50%"],
  ["O=C(c1csc2c(O)nc(-c3ccccn3)nc12)N1CC2CC1CN2c1ccccc1 (centres unmarked) [drawing 2838]", "76 to 100%"],
  ["Cc1ccc2cccc(OS(=O)(=O)N3CCOCC3)c2n1", "25 to 50%"],
  ["Oc1nc(-c2ccccn2)nc2c(-c3cc(F)ccc3OC(F)F)csc12 [drawing 2860]", "25 to 50%"],
  ["Oc1nc(-c2ccccn2)nc2c(-c3ccc(OC4CCCC4)cc3)csc12 [drawing 2863]", "25 to 50%"]
]}
